tested on: chick chorioallantoic membrane (CAM) angiogenesis; assay: Chick chorioallantoic membrane (CAM) angiogenesis assay; type: in vivo, chicken; details: 20 μM peptide; relative to control gels; mean ± SD
Where no end group is shown, it is not given here.
Assign class by Angiogenic response (% inhibition): not lower than 10% means Criterion met; lower than 10% means Criterion not met.

Use the examples below as a reference point.
ri-FQGVLQNVRFVF [Peptide 709] ... Criterion met
FQGVLQNVRFVF [Peptide 678] ... Criterion met
FAGVLQNVRFVF [Peptide 696] ... Criterion met
FQGVLQAVRFVF [Peptide 686] ... Criterion met

// switching to the query substance
Is reported Angiogenic response (% inhibition) greater than or equal to 10% here: FQGVLQNVAFVF [Peptide 690]
Criterion not met

* * *

test system: MDA-MB-435 breast carcinoma cells; experiment: Inhibition of MDA-MB-435 cell adhesion to immobilized peptide 678 (microscopic adhesion assay); format: cell-based, human; settings: microscopic adhesion assay; polystyrene coated with 5 μM peptide 678; peptides in solution; read-out: Inhibition of peptide 678 (IC50)
Where no end group is shown, it is not given here.
measurement_label: IC50

Fill: IC50 (MDA-MB-435 breast carcinoma cells) for this substance FQGVLQNVRF [Peptide 682]
6 µM

Report measured IC50 on MDA-MB-435 breast carcinoma cells; entry: FQGVLQNVRAVF [Peptide 692]
18 µM

State IC50 (MDA-MB-435 breast carcinoma cells) of FQGVLQNVAFVF [Peptide 690] .
> 300 µM

State IC50 on MDA-MB-435 breast carcinoma cells. Entry: LQNVRFVF [Peptide 684]
300 µM

# lookup: MDA-MB-435 breast carcinoma cells IC50, key = QGVLQNVR [Peptide 683]
> 300 µM

* * *

tested on: MDA-MB-435 breast carcinoma cells; assay: Inhibition of MDA-MB-435 cell adhesion to immobilized peptide 678 (microscopic adhesion assay); assay type: cell-based, human; conditions: Table 3; 5 μM peptide 678; read-out: IC50 (μM), inhibition of MDA-MB-435 cell adhesion to immobilized peptide 678
Where no end group is shown, it is not given here.
# IC50 per record follows
Numbers only here, please. The scale is µM.

FQGVAQNVRFVF [Peptide 695] ... 5
FQGVLANVRFVF [Peptide 687] ... 3
FAGVLQNVRFVF [Peptide 696] ... 1.8
FQGVLQNVKFVF [Peptide 702] ... 6
AQGVLQNVRFVF [Peptide 697] ... 5

Name the value of IC50 reported for FQGVLQNVRFVF [Peptide 678] when tested on MDA-MB-435 breast carcinoma cells.
3.5

Give the observed IC50 of FQGVLQNVRAVF [Peptide 692] for MDA-MB-435 breast carcinoma cells.
18

State measured IC50 of the sequence FQGVLQNVHFVF [Peptide 694] with MDA-MB-435 breast carcinoma cells.
54

Give IC50 for this entry on MDA-MB-435 breast carcinoma cells: FQGVLQNVRFVA [Peptide 693]
27

* * *

IC50 by entry:
test system: MDA-MB-435 breast carcinoma cells; experiment: Inhibition of MDA-MB-435 cell adhesion to immobilized peptide 678 (microscopic adhesion assay); type: cell-based, human; conditions: microscopic adhesion assay; polystyrene coated with 5 μM peptide 678; peptides in solution; read-out: Inhibition of peptide 678 (IC50)
Where no end group is shown, it is not given here.
Kindly provide the numeric value in µM only, without the unit symbol.

FQGVLQNVRFVA [Peptide 693] ... 27
QGVLQNVRFVF [Peptide 685] ... 24
Ac-LQNVRF-NH2 [Peptide 681, ac-LQNVRF-am] ... 500
FQGVLANVRFVF [Peptide 687] ... 3

Return reported IC50. Input substance: FQGVLQNVKFVF [Peptide 702]
6

Give the measured IC50 for FQGVLQNVRFVF [Peptide 678]
3.5

Given FQGVAQNVRFVF [Peptide 695] , respond with its IC50.
5

Item FQGVLNNVRFVF [Peptide 698] : provide IC50
3

Fill in reported IC50 for this entry: FQGVLQNVHFVF [Peptide 694]
54

State its IC50 for this substance: FAGVLQNVRFVF [Peptide 696]
1.8

Report IC50, nothing else, for this substance: AQGVLQNVRFVF [Peptide 697]
5

Values from patent US8114406B2
